experiment: Transmittance of absorption membrane before and after reliability evaluation (Test Example 1); type: physicochemical; conditions: silicone resin membrane; after 85° C., 85% RH, 120 hours
QUANTITY_KIND: 425~465 nm Tmin, A

SMILES_TEXT | 425~465 nm Tmin, A
CC1(C)C(/C=C/C=C/C=C/C=C2\N(C[Si](C)(C)C)c3ccc4ccccc4c3C2(C)C)=[N+](C[Si](C)(C)C)c2ccc3ccccc3c21 | 88.7%

-- ask Could you tell me which 425~465 nm Tmin, A is on file for CC1(C)C(/C=C/C2=C(Cl)C(=C/C=C3\N(C[Si](C)(C)C)c4ccccc4C3(C)C)/CC2)=[N+](C[Si](C)(C)C)c2ccccc21 ?
-- reply 87%

-- ask Could you tell me which 425~465 nm Tmin, A is on file for CC1(C)C(/C=C/C=C/C=C/C=C2\N(C[Si](C)(C)C)c3ccccc3C2(C)C)=[N+](C[Si](C)(C)C)c2ccccc21 ?
-- reply 88%

====

assay: Transmittance of absorption membrane before and after reliability evaluation (Test Example 1); type: physicochemical; conditions: silicone resin membrane about 6 μm; before reliability evaluation
QUANTITY_KIND: 466~480 nm Tmin, B (%)
Only the number, expressed in %, is required.

-- ask Could you tell me which 466~480 nm Tmin, B is on file for CCCCN1\C(=C/C=C/C=C/C=C/C2=[N+](CCCC)c3ccc4ccccc4c3C2(C)C)C(C)(C)c2c1ccc1ccccc21 ?
-- reply 89.8

====

assay: Transmittance of absorption membrane before and after reliability evaluation (Test Example 1); type: physicochemical; conditions: silicone resin membrane about 6 μm; before reliability evaluation
Reported 466~480 nm Tave, B is given for each of the following compounds.
Only the number, expressed in %, is required.

Here are 4 compounds together with their reported answers.
SMILES_TEXT | UNIT_DESCRIPTOR | 466~480 nm Tave, B
CCCCN1\C(=C/C=C/C=C/C=C/C2=[N+](CCCC)c3ccccc3C2(C)C)C(C)(C)c2ccccc21 | % | 90.1
CCCCN1/C(=C\C=C2/CCC(/C=C/C3=[N+](CCCC)c4ccccc4C3(C)C)=C2Cl)C(C)(C)c2ccccc21 | % | 88.9
CC1(C)C(/C=C/C2=C(Cl)C(=C/C=C3\N(C[Si](C)(C)C)c4ccccc4C3(C)C)/CC2)=[N+](C[Si](C)(C)C)c2ccccc21 | % | 89.4
CCCCN1\C(=C/C=C/C=C/C=C/C2=[N+](CCCC)c3ccc4ccccc4c3C2(C)C)C(C)(C)c2c1ccc1ccccc21 | % | 90.2

-- ask Could you tell me which 466~480 nm Tave, B is on file for CC1(C)C(/C=C/C=C/C=C/C=C2\N(C[Si](C)(C)C)c3ccccc3C2(C)C)=[N+](C[Si](C)(C)C)c2ccccc21 ?
-- reply 91.1

-- ask Could you tell me which 466~480 nm Tave, B is on file for CC1(C)C(/C=C/C=C/C=C/C=C2\N(C[Si](C)(C)C)c3ccc4ccccc4c3C2(C)C)=[N+](C[Si](C)(C)C)c2ccc3ccccc3c21 ?
-- reply 90.3

====

assay: Transmittance of absorption membrane before and after reliability evaluation (Test Example 1); assay type: physicochemical; conditions: change before/after 85° C., 85% RH, 120 hours
QUANTITY_KIND: λmax Tmax (transmittance at the absorption maximum), Δ (%)
Only the number, expressed in %, is required.

COMPOUND | VALUE
CCCCN1\C(=C/C=C/C=C/C=C/C2=[N+](CCCC)c3ccc4ccccc4c3C2(C)C)C(C)(C)c2c1ccc1ccccc21 [Comparative Example 2] | 12.8
CCCCN1/C(=C\C=C2/CCC(/C=C/C3=[N+](CCCC)c4ccccc4C3(C)C)=C2Cl)C(C)(C)c2ccccc21 [Comparative Example 3] | 11.4
CC1(C)C(/C=C/C=C/C=C/C=C2\N(C[Si](C)(C)C)c3ccccc3C2(C)C)=[N+](C[Si](C)(C)C)c2ccccc21 [Embodiment 1] | 0.8
CC1(C)C(/C=C/C=C/C=C/C=C2\N(C[Si](C)(C)C)c3ccc4ccccc4c3C2(C)C)=[N+](C[Si](C)(C)C)c2ccc3ccccc3c21 [Embodiment 2] | 1.4
CCCCN1\C(=C/C=C/C=C/C=C/C2=[N+](CCCC)c3ccccc3C2(C)C)C(C)(C)c2ccccc21 [Comparative Example 1] | 14.7

Now, please, on to the next compound.
-- ask Could you tell me which λmax Tmax (transmittance at the absorption maximum), Δ is on file for CC1(C)C(/C=C/C2=C(Cl)C(=C/C=C3\N(C[Si](C)(C)C)c4ccccc4C3(C)C)/CC2)=[N+](C[Si](C)(C)C)c2ccccc21 [Embodiment 3] ?
-- reply 0.8
